z-score values for the molecules below.
# Assay Info: hepatitis C replication reporter changes, two-sided – Huh7 cells, luciferase reporter, HCV replication inhibitor project, primary screen (AID 1109);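 further: huh7 hepatoma cells harbouring a luciferase neomycin HCV replicon reporter; luciferase luminescence as measure of HCV replicon replication; test concentration not given here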
# Setup Conditions: Huh7 HCV replicon luciferase reporter, 48 h; higher = more signal
Measured Endpoint: z-score

Molecule	Measured Number
COc1cc(CO)cc(I)c1O[C@H]1C=C(C(=O)NCCO)C[C@@H](N(CCc2cccc(F)c2)C(=O)CCC2CCCC2)[C@@H]1O	-4.65
C=C(/C(=C/C[C@@H](OC(=O)c1ccncc1)c1ccc(CO)o1)c1cc(C(=O)OC)ccc1OC)C(C)C	-2.03
O=C1OCC=C[C@H]2OC34C=CCN(c5ccc6ccccc6c5)C(=O)[C@H]3N(CCO)C(=O)[C@@H]4[C@@H]12 (some centres not stated)	-0.727
CCOC(=O)C[C@H]1[C@H](OC(=O)c2cc3ccccc3oc2=O)[C@@H](NC(=O)c2ccc3ccccc3c2)c2cc(OCCCO)ccc2N1C(=O)c1ccccc1	-0.593
CCOC(=O)N1C(c2ccc(OCCCO)cc2)=NC(C(=O)OC)N1C(=O)OCC (configuration not stated)	-3.72
O=C1OCCC/C=C\[C@H]2OC34C=CCN(CCN5CCOCC5)C(=O)[C@H]3N(CCO)C(=O)[C@@H]4C12 (some centres not stated)	0.0112
COC(=O)c1nc2oc1CC[C@@H](CO)NC(=O)N(C)Cc1cn(nn1)C[C@H](Cc1ccccc1)NC2=O	1.34
